assay explanation: small-molecule microarray binders of probe aNog, primary screen, biochemical, biotinylated probe, 635/667 nm fluorescence (AID 1115);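 further: probe is biotinylated aNog protein used at 0.15 µg/mL for 1 h at 4 C; z-score combines 667 nm fluorescence of each spot with its signal to noise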
recorded conditions: higher = more signal
Overview of recorded composite z-score for various compounds
Returns: the value as a bare number; no unit string appended.

Solved cases (3 shown):
O=C1[C@H]2[C@H]3[C@H](O)[C@H](O)CC(=NOCc4ccccc4)[C@H]3CC[C@H]2C(=O)N1Cc1ccccc1: -0.182
C[C@@H](c1ccccc1)N1C(=O)[C@H]2[C@H]3[C@H](O)[C@H](O)CC(=O)[C@@H]3CC[C@H]2C1=O: -0.387
CC(=O)OC[C@H]1O[C@H](C#CC(C)(C)C)C=C[C@@H]1OC(C)=O: -0.433

// next item, composite z-score requested
Return reported composite z-score. Input compound: `CCCNC(=O)OC[C@H]1O[C@H](CCON=C(C)CCN2CCc3nc(-c4ccccc4)c(-c4ccccc4)cc3C2)C=C[C@@H]1Oc1ccc(OC)cc1`
-0.321
